- measured.on: Protein-glutamine gamma-glutamyltransferase (Homo sapiens) (UniProt P21980)
- Sequence (P21980 whole entry): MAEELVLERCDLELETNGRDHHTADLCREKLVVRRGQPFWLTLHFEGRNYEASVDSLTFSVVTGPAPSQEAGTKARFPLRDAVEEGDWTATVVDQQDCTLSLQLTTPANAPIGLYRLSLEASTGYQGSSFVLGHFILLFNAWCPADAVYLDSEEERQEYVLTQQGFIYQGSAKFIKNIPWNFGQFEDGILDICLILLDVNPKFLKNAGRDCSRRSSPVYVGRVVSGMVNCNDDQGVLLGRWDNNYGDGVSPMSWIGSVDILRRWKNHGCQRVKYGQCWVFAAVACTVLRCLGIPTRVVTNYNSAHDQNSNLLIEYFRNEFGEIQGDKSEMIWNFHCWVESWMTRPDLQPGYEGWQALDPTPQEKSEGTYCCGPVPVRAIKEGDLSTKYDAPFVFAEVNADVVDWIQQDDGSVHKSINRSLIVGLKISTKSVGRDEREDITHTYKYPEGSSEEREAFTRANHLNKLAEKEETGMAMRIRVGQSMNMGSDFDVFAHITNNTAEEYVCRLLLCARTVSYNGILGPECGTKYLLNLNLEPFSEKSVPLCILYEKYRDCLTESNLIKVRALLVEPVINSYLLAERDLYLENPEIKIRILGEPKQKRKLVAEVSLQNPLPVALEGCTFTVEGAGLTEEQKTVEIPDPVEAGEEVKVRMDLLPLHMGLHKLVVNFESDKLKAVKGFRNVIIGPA
- assay.overview: Inhibition of TG2 (unknown origin) using Cbz-Glu(gamma-p-nitrophenyl ester)Gly (AL5) as substrate assessed as Kinact/Ki ratio and measured by colorimetric assay

item.smiles	measured.on	Ratio
C=CC(=O)NCCCC[C@H](NC(=O)OCc1ccccc1)C(=O)N1CCN(S(=O)(=O)c2cccc3c(N(C)C)cccc23)CC1	Protein-glutamine gamma-glutamyltransferase (Homo sapiens) (UniProt P21980)	100 10^3/M/min
C=CC(=O)NCCCC[C@H](NC(=O)c1cccnc1)C(=O)N1CCN(C(=O)c2cccc3ccccc23)CC1	Protein-glutamine gamma-glutamyltransferase (Homo sapiens) (UniProt P21980)	23.3 10^3/M/min
C=CC(=O)NCCCC[C@H](NS(=O)(=O)Cc1ccccc1)C(=O)N1CCN(C(=O)c2cccc3ccccc23)CC1	Protein-glutamine gamma-glutamyltransferase (Homo sapiens) (UniProt P21980)	11.4 10^3/M/min
